Biological target: human recombinant HDAC1 (Homo sapiens)
Sequence (Q13547 whole entry): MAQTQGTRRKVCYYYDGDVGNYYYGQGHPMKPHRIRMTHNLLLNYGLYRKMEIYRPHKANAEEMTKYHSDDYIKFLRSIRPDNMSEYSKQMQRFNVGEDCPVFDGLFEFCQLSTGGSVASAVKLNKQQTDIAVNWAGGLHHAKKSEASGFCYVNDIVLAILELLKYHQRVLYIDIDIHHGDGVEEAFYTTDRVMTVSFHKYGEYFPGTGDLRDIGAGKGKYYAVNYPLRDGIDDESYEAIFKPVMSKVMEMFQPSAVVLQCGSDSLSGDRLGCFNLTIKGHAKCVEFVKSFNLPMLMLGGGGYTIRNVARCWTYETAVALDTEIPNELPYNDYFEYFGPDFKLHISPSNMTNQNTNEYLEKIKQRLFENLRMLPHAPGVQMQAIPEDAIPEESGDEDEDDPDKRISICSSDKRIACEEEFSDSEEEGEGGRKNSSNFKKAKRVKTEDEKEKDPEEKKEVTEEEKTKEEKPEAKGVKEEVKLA
Test: HDAC enzyme activity inhibition assay (HDAC Fluorimetric Drug Discovery Kit), HDAC1
Details: human recombinant HDAC1, Fluor de Lys-SIRT1 substrate, 30° C. 60 minutes
Please provide measured IC50 for the entries that follow.

# count of solved cases: 2
| structure-smiles | IC50 |
| --- | --- |
| O=C(N1CC(F)(C(=O)N(Cc2ccc(-c3nnc(C(F)F)o3)cc2F)c2ccccc2)C1)C(F)(F)F | > 50 µM |
| CC(C)N1CC(F)(C(=O)N(Cc2ccc(-c3nnc(C(F)F)o3)cn2)c2cccc(F)c2)C1 | 18.5 µM |

Continue with the molecule presented below.
Incoming: State the recorded IC50 for this entry: "CCN1CC(F)(C(=O)N(Cc2ccc(-c3nnc(C(F)F)o3)cn2)c2ccccc2)C1"
Outgoing: > 50 µM

All figures here come from patent US20230278995A1.
